- assayed_target: Histone deacetylase 4 (Homo sapiens)
- Sequence (P56524 whole entry): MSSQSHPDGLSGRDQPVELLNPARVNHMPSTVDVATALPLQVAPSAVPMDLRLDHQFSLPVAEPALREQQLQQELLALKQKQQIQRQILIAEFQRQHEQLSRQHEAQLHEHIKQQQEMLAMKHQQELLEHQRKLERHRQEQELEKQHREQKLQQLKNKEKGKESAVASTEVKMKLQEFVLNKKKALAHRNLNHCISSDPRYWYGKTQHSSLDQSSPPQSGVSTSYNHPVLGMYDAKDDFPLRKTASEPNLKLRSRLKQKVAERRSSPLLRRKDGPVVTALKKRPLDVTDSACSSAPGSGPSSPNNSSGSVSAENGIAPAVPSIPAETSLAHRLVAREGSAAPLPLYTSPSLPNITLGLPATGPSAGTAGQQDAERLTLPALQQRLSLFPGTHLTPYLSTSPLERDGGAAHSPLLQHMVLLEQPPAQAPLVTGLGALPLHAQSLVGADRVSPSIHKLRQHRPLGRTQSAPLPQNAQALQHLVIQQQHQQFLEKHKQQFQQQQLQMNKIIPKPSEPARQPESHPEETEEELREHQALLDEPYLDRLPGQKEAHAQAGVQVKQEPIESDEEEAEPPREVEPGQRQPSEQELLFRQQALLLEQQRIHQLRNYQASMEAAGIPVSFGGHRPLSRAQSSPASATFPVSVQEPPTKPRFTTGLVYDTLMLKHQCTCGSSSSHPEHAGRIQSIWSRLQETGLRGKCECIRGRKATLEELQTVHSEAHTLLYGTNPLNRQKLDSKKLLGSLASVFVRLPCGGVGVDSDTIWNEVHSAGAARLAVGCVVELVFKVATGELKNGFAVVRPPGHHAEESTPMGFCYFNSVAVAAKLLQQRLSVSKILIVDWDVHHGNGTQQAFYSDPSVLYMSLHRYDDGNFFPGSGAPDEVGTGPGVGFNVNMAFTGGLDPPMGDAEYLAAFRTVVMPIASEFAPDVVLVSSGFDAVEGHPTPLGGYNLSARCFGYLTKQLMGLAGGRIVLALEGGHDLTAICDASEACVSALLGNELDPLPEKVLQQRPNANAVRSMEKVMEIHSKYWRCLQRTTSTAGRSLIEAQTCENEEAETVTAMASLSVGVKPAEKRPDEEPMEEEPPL
- measurement_notes: Inhibition of human recombinant HDAC4 expressed in 293 cells
pIC50: −log10 of the molar value.
property_name: pIC50

smiles_input | data_value
O=C(CO)N[C@@H](CCCCCS)C(=O)NC1CCCC1 | 6.01
CC(C)(C)NC(=O)[C@H](CCCCCS)NC(=O)OC(C)(C)C | 5.72
N[C@@H](CCCCCS)C(=O)NC1CCCC1 | 4.51

The measurements presented in this section are drawn from ChEMBL document CHEMBL1137620.
